Listed binders paired with reported IC50 (M); hIL36γ; IL-8 production
Target: T1, IL-36R naturally expressed on OVCAR8 cells and on normal human epidermal keratinocytes (NHK cells) (human, UniProt Q9HB29 20-575)
T1 sequence (looked up): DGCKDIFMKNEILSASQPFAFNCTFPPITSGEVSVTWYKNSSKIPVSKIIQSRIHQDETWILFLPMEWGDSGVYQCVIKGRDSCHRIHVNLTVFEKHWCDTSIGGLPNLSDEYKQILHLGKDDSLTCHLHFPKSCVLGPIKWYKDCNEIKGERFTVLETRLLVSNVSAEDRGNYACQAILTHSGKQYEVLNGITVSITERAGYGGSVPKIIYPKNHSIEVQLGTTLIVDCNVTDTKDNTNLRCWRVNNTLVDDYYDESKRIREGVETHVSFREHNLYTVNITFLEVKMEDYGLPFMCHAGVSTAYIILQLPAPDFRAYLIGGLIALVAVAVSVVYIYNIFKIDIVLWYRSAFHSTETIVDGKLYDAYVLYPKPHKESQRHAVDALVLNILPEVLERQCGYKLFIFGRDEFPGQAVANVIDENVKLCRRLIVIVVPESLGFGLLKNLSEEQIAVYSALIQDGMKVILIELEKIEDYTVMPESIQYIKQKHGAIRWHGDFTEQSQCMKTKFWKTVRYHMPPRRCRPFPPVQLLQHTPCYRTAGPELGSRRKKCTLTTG
Experiment: cell-based or functional assay

So what does the record say about IC50 (M); hIL36γ; IL-8 production for hz84C4-1.5 (antibody, human IgG4 S228P, kappa, V domains shown, Humanized, human IgG4 / kappa) VH: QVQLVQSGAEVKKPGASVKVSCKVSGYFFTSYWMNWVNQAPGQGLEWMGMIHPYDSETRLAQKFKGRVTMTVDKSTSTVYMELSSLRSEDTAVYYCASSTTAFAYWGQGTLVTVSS VL: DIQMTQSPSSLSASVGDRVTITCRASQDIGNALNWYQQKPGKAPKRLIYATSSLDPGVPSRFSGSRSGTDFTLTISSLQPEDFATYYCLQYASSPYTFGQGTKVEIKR ?
1.27e-11 M

Query hz84C4-1.2 (antibody, human IgG4 S228P, kappa, V domains shown, Humanized, human IgG4 / kappa) VH: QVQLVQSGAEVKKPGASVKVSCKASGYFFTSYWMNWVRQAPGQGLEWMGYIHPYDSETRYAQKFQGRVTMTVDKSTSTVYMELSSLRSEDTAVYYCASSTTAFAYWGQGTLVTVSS VL: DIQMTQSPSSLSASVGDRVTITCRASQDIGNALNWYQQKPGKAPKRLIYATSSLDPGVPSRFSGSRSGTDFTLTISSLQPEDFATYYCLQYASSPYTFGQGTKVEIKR next
3.42e-12 M

Query hz84C4-2.4 (antibody, human IgG4 S228P, kappa, V domains shown, Humanized, human IgG4 / kappa) VH: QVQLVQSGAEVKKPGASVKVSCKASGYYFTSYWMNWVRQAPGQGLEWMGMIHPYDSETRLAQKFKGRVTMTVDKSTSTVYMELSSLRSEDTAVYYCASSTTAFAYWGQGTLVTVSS VL: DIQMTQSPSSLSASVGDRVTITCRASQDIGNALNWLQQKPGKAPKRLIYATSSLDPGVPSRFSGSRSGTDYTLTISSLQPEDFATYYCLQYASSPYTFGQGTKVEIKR next
1.12e-11 M
